FYI, the data here is from ChEMBL document CHEMBL1143609.

Each item that follows carries a reported pIC50.
- Tested on: HT-29
- Method: Inhibitory concentration against HT-29 cell line
- Assay type: functional, cell-based
- Condition Description: Homo sapiens
pIC50: −log10 of the molar value.

Some entries whose results are on file:
[[record]]
substance_smiles = "COc1cccc2c(=O)c3c(O)c4c(cc3oc12)O[C@@H]1[C@H]4OC[C@@]1(C)O"
endpoint_value = "< 4.52"

[[record]]
substance_smiles = "COc1cccc2c(=O)c3c(O)c4c(cc3oc12)O[C@@H]1[C@H]4OC[C@]1(C)O"
endpoint_value = "< 4.52"

[[record]]
substance_smiles = "COc1cccc2c(=O)c3c(O)cc4c(c3oc12)[C@@H]1OC[C@](O)(CCl)[C@@H]1O4"
endpoint_value = 5.15

[[record]]
substance_smiles = "COc1cc2c(c3oc4c(O)cccc4c(=O)c13)C[C@H]([C@@]1(C)CO1)O2"
endpoint_value = 6.19

[[record]]
substance_smiles = "COc1cccc2c(=O)c3c(O)cc4c(c3oc12)[C@@H]1OC[C@]2(CO2)[C@@H]1O4"
endpoint_value = "< 4.52"


[ask] Quickly give me recorded pIC50 for C=C1CO[C@H]2c3c(cc(O)c4c(=O)c5cccc(OC)c5oc34)O[C@@H]12
[reply] < 4.52

[ask] Quickly give me recorded pIC50 for COc1cccc2c(=O)c3c(O)cc4c(c3oc12)[C@@H]1OC[C@](O)(CO)[C@@H]1O4
[reply] 4.44

[ask] Quickly give me recorded pIC50 for COc1cccc2c(=O)c3c(O)cc4c(c3oc12)C[C@H]([C@](C)(O)CO)O4
[reply] < 4.52

[ask] Quickly give me recorded pIC50 for COc1cccc2c(=O)c3c(O)cc4c(c3oc12)C[C@H]([C@@](C)(O)CO)O4
[reply] < 4.52
